Molecular target: T1, AFP p26 (human, UniProt P02771 381-609)
T1 construct: The construct used is not described
T1 sequence: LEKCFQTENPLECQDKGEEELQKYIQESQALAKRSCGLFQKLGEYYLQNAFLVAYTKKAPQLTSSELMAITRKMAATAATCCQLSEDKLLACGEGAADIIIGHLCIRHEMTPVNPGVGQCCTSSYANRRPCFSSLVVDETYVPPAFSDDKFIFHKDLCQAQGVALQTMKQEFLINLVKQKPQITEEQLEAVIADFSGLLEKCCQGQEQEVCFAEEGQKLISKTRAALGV
Test: phage ELISA, A450 target/A450 IgG1-Fc
A collection of binders and their measured ELISA_avg
Report the figure in ratio without appending any unit label.

SEQ ID NO 815 (designed binder) MGSWHEFSERLFAIWTRLEALGGSEAELAAFEKEIAAFESELQAYKGKGNPEVEALRQSAAFIRVMLQAYRHN :: 8.21
SEQ ID NO 783 (designed binder) MGSWLEFSQRLTAIDSRLWALGGSEAELAAFEKEIAAFESELQAYKGKGNPEVENLREHAAKIRNWLQAYRHN :: 30.4
SEQ ID NO 816 (designed binder) MGSWGEFTVRLYAIDRRLDALGGSEAELAAFEKEIAAFESELQAYKGKGNPEVEELRRFAAIIRAFLQAYRHN :: 8.54
SEQ ID NO 795 (designed binder) MGSWYEFSHRLEAIEDRLFALGGSEAELAAFEKEIAAFESELQAYKGKGNPEVEPLREHAAYIRHWLQAYRHN :: 26
SEQ ID NO 801 (designed binder) MGSWVEFVERLDAIEFRLFALGGSEAELAAFEKEIAAFESELQAYKGKGNPEVEKLRNHAAHIRSWLQAYRHN :: 23.8

Form: binder = SEQ ID NO 825 (designed binder) MGSWVLFKDYLADIKHYLEALGGSEAELANFEHLIANFEGDLQTYKGKGNPEVEALRKEAAAIRDELQAYRHN ; ELISA_avg = 13.8

Form: binder = SEQ ID NO 811 (designed binder) MGSWHEFYDRLYAIWDRLDALGGSEAELAAFEKEIAAFESELQAYKGKGNPEVEGLRNAAAVIRIFLQAYRHN ; ELISA_avg = 22.9

Form: binder = SEQ ID NO 828 (designed binder) MGSWIYFKDELAGIKKYLEALGGSEAELAMFEVAIADFEAILQKYKGKGNPEVEALRKEAAAIRDELQAYRHN ; ELISA_avg = 15.9

Form: binder = SEQ ID NO 743 (designed binder) MGSWMEFFDRLVAIDERLWALGGSEAELAAFEKEIAAFESELQAYKGKGNPEVEYLRMWAAEIRFLLQAYRHN ; ELISA_avg = 18.6

Form: binder = SEQ ID NO 867 (designed binder) MGSWIAFKDHLAIIKQRLEALGGSEAELARFEFEIAWFEWMLQYYKGKGNPEVEALRKEAAAIRDELQAYRHN ; ELISA_avg = 29.9
